# Assay procedure: Human HepG2 cell viability assay in 384 well format
# Format: toxicity, cell-based
# Design: dose 125 nL, time 70.5 hour; concentration not given beside the values
# Experimental context: HepG2 cells, read-out: Inhibition
Reported values of cytotoxicity at 70.5 h for individual entries
Could you give me the number in %? Just the number is fine.

Sample COc1ccc(C(=O)NS(=O)(=O)c2ccc(C#N)cc2C(F)(F)F)cc1 ; cytotoxicity at 70.5 h observed: -16.9

Sample CCN1CC(C(=O)NC(C)(C)CC)CC1=O (stereo unspecified) ; cytotoxicity at 70.5 h observed: -3.27

Sample O=C(c1cccs1)N1CCC(Cn2nc(-c3ccco3)ccc2=O)CC1 ; cytotoxicity at 70.5 h observed: 8.96

Sample NC(=O)COc1cccc(C(=O)NCc2ccc(Cl)s2)c1 ; cytotoxicity at 70.5 h observed: -11.8

Sample CCn1c(CN(C)Cc2csc(C)n2)nc2cc(F)ccc21 ; cytotoxicity at 70.5 h observed: -20.1

Sample CC(C)n1cnnc1CN(C)Cc1cnc(-c2cccs2)nc1 ; cytotoxicity at 70.5 h observed: 0.122

Sample COc1ccc(C(=O)Nc2cccc(C(N)=O)c2)c(OC)n1 ; cytotoxicity at 70.5 h observed: 9.82

Sample O=C1NC[C@@]2(C(=O)O)CN(Cc3cccc(C(F)(F)F)c3)C[C@@H]12 ; cytotoxicity at 70.5 h observed: 7.18

Sample Cn1ccnc1CN1CCC2(CC1)Cc1ccccc1CNC2=O ; cytotoxicity at 70.5 h observed: -3.2

Sample COC(=O)[C@@H]1Cc2ncn(C)c2CN1S(=O)(=O)Cc1ccccc1 ; cytotoxicity at 70.5 h observed: -2.85

Sample O=C(c1ccc(Cl)s1)N1CCC2(CNS(=O)(=O)c3cnccc3O2)C1 (stereo unspecified) ; cytotoxicity at 70.5 h observed: 19.5

###

# Assay procedure: Human HepG2 cell viability assay in 384 well format
# Assay type: toxicity, cell-based
# Set-up: dose 125 nL, time 70.5 hour; concentration not given beside the values
# Experimental context: HepG2 cells, read-out: Inhibition
Reported values of cytotoxicity at 70.5 h for individual entries
Could you give me the number in %? Just the number is fine.

Examples from the recorded data:
Cc1cc(S(=O)(=O)N2CCC(S(C)(=O)=O)CC2)ccc1F | -0.414
COc1ccc([C@@H]2CN(Cc3cccnc3N)C[C@H]2N(C)C)cc1 | -2.88
CN(C)[C@H]1CN(C(=O)CCc2cccc(F)c2)C[C@@H]1C1CC1 | -5.67
CN(CCNc1ncc2c(n1)CCN2c1ccccc1)S(C)(=O)=O | -9.7
CC(=O)N1CCN(C(C)C)CC(COc2ccccc2)C1 (stereo unspecified) | -6.04
CC1=NN(CC(=O)N2CC[C@@H]3[C@@H](CCC(=O)N3CC(C)C)C2)CC1 | -1.09
Cc1ccc(S(=O)(=O)N2C[C@H]3C[C@H](NC(=O)C(C)C)[C@H]3C2)cc1 | 20.3
O=C1NCCN1C1CCN(CC(O)c2ccccc2F)CC1 (stereo unspecified) | -7.23

Sample COCCO[C@@H]1C[C@H]2CN(C(=O)c3ccc(C)nc3)CCN2C1 ; cytotoxicity at 70.5 h observed: -9.86

Sample Cc1ncsc1C(=O)N1CCC(c2ncncc2-c2ccnc(N)c2)C1 (stereo unspecified) ; cytotoxicity at 70.5 h observed: -7

Sample CCCn1nc(C)c(-c2cncn2CCN(C)C2CCCC2)c1C ; cytotoxicity at 70.5 h observed: -4.61

Sample NC(=O)c1ccccc1NC(=O)CCN1CCN(CCO)CC1 ; cytotoxicity at 70.5 h observed: -10.4

Sample Cn1ncc(N2CCC(CNC(=O)[C@@H](N)c3ccccc3)CC2)cc1=O ; cytotoxicity at 70.5 h observed: -4.64

###

# Assay procedure: Human HepG2 cell viability assay in 384 well format
# Assay type: toxicity, cell-based
# Parameters: dose 125 nL, time 70.5 hour; concentration not given beside the values
# Experimental context: HepG2 cells, read-out: Inhibition
Reported values of cytotoxicity at 70.5 h for individual entries
Could you give me the number in %? Just the number is fine.

CCCN1CCc2nc(SCc3ccccc3F)[nH]c(=O)c2C1 | 6.37
COc1ccccc1CN(CC1CCCO1)C(=O)c1ccc(F)cn1 (configuration not stated) | -9.98
COc1cccc2sc(OC3CN(C(=O)C4=COCCO4)C3)nc12 | -8.14
Cc1nc(CN2CCCC(c3cc(C(N)=O)[nH]n3)C2)oc1C (configuration not stated) | -1.85
CC1(C)Cc2nc(C(C)(C)C)ncc2C(NC(=O)C2(N)CC2)C1 (configuration not stated) | 105
Cc1cccnc1NC(=O)CC1(Cn2cnnn2)CCCCC1 | -7.45

Lab note: next compound to report on.
Sample COC(=O)c1ccc(S(=O)(=O)N2CCCn3ncnc32)s1 ; cytotoxicity at 70.5 h observed: 0.743

###

Reported values of cytotoxicity at 70.5 h for individual entries
# Assay procedure: Human HepG2 cell viability assay in 384 well format
# Assay type: toxicity, cell-based
# Design: dose 125 nL, time 70.5 hour; concentration not given beside the values
# Experimental context: HepG2 cells, read-out: Inhibition
Could you give me the number in %? Just the number is fine.

Examples from the recorded data:
CCc1nc(C2CCCN2c2ncc(C(F)(F)F)cc2Cl)no1 (stereo unspecified) | 1.13
O=c1cc(N2CCc3ccccc3C2)cnn1CCC1CCOC1 (stereo unspecified) | 1.4
O=C(NCCCO)Nc1cccc(I)c1 | -5.84
CN(C)CCN1C(=O)CCC12CCN(C(=O)CC1CC1)CC2 | -6.33
Cn1ccc(C(=O)NC2CCC23CCN(Cc2nccs2)CC3)c1 (stereo unspecified) | -4.21

Lab note: next compound to report on.
Sample COC(C)C(=O)Nc1cc(C(=O)N2CCSCC2)ccc1C (stereo unspecified) ; cytotoxicity at 70.5 h observed: 0.013

###

# Assay procedure: Human HepG2 cell viability assay in 384 well format
# Type: toxicity, cell-based
# Parameters: dose 125 nL, time 70.5 hour; concentration not given beside the values
# Experimental context: HepG2 cells, read-out: Inhibition
Reported values of cytotoxicity at 70.5 h for individual entries
Could you give me the number in %? Just the number is fine.

Examples from the recorded data:
CCC(C)C(=O)NS(=O)(=O)c1ccc(C#N)cc1C(F)(F)F (configuration not stated) | -3.39
Cc1cccc(CN2CCS(=O)(=O)[C@@H]3CCN(C(=O)C4CC4)CC[C@@H]32)n1 | 15.9
Cc1ccc(CCNC(=O)N2CCC(Cc3cnn(C)c3)C2)cn1 (configuration not stated) | -1.42
Cc1nnc(N2CCCC3(CN(Cc4ccc(F)cc4)CCO3)C2)o1 (configuration not stated) | -1.36
CCN1C(=O)CC[C@@H]2[C@H]1CCN2S(=O)(=O)c1cccs1 | -4.53
CC(NC(=O)NCc1cccnc1N(C)C)c1cccs1 (configuration not stated) | -23.6
Cc1cnc(N2CCOC3(COCCN(c4nccs4)C3)C2)nc1 (configuration not stated) | -4.6
CCN1C(=O)CC[C@@H]2N(C(=O)CCn3nccc3C)CCCC[C@@]21C | -6.96
CC(C)c1csc(C(=O)N(C)c2ccc(Br)cn2)n1 | -3.47
Cc1cc(C2CCC2)nc(NCC(C)(C)CO)n1 | -2.23

Sample COc1ccccc1NCC(=O)NCc1ccc(-c2ccn[nH]2)cc1 ; cytotoxicity at 70.5 h observed: -4.94

Sample CCn1c(C)nnc1SCCn1cc(-c2ncc[nH]2)nn1 ; cytotoxicity at 70.5 h observed: -5.72

Sample CN(C)[C@@H]1CCN(C(=O)c2ccco2)[C@H]1Cc1cnn(C)c1 ; cytotoxicity at 70.5 h observed: -12.7

Sample c1coc(-c2nc(CNC3CCC4(CCNCC4)CC3)no2)c1 ; cytotoxicity at 70.5 h observed: -3.78

Sample Oc1ccc(N(CCc2ccccc2)CCn2cncn2)cc1 ; cytotoxicity at 70.5 h observed: 7.13

Sample CCc1nc(CN(C)C2CCN(CCC(=O)N3CCCCC3)C2)no1 (configuration not stated) ; cytotoxicity at 70.5 h observed: 0.593

Sample CCCc1c(C(=O)N2CCN(c3cnccn3)CC2)cnn1C ; cytotoxicity at 70.5 h observed: -14.4

Sample CCCNC(=O)CNC(=O)CC1CCCc2cc(OC)ccc21 (configuration not stated) ; cytotoxicity at 70.5 h observed: -6.62

Sample O=C(NCC1(CO)CC1)c1ccccc1Br ; cytotoxicity at 70.5 h observed: -8.75

Sample CN(C)CC(=O)N1Cc2nc(C(=O)NCc3ccccc3)oc2C1 ; cytotoxicity at 70.5 h observed: 13

Sample CC(C)Cc1noc(CN2CCCN(C(=O)c3cccc(Cl)c3)CC2)n1 ; cytotoxicity at 70.5 h observed: 23.3

Sample C=C(C)CN(CC)S(=O)(=O)c1c(F)cc(NC(C)=O)cc1F ; cytotoxicity at 70.5 h observed: -3.3

Sample CCOc1cccc(CNC(C)c2ccc(-n3ccnc3)cc2)c1O (configuration not stated) ; cytotoxicity at 70.5 h observed: 2.29

Sample COc1ccccc1[C@@H]1CN(Cc2ccncc2)C[C@H]1C(=O)O ; cytotoxicity at 70.5 h observed: 9.71

Sample CN(Cc1cc(Br)cn1C)C(=O)c1cscn1 ; cytotoxicity at 70.5 h observed: -0.963

Sample Cc1cnc(N2CCC3(CC2)CC3CNC(=O)N(C)C)nc1 (configuration not stated) ; cytotoxicity at 70.5 h observed: -6.55

Sample Cn1nc(C2CCCN(C(=O)Cc3ccsc3)C2)c2nccnc21 (configuration not stated) ; cytotoxicity at 70.5 h observed: -9.48

Sample CNS(=O)(=O)c1cccc(CNC(=O)NCC2CCOC2)c1 (configuration not stated) ; cytotoxicity at 70.5 h observed: -8.46

Sample O=C1CCC(=O)N1CCn1nnc(-c2ccc(Br)cc2)n1 ; cytotoxicity at 70.5 h observed: -2.01
